biological target: recombinant human beta tryptase (Homo sapiens); construct: made in house; host or cells: yeast cells; assay: beta-Tryptase inhibition, chromogenic enzyme assay (substrate S2366, read at 405 nm); format: biochemical; conditions: Tryptase Ki (nM), Ki calculated from IC50: Ki=IC50/(1+[Substrate]/Km); 0.5 mM substrate, room temperature
Structures can show the parent of a compound that is named as a salt.
Record form. Attribute: Ki. Fill in for each entry.
One number for each entry, in nM.

[
  {
    "Compound": "COCCn1cc(C(=O)N2CCC(c3cc(CN)ccc3F)CC2)c2cccc(OC(F)(F)F)c21 [Example 1, hydrochloride]",
    "System Under Test": "recombinant human beta tryptase (Homo sapiens)",
    "Result Unit": "nM",
    "Ki": 47
  },
  {
    "Compound": "NCc1ccc(F)c(C2CCN(C(=O)c3cn(CCOC(F)(F)F)c4cccc(F)c34)CC2)c1 [Example 90, hydrochloride]",
    "System Under Test": "recombinant human beta tryptase (Homo sapiens)",
    "Result Unit": "nM",
    "Ki": 396
  },
  {
    "Compound": "NCc1ccc(F)c(C2CCN(C(=O)c3cn4c5c(cccc35)OCC4)CC2)c1 [Example 49, hydrochloride]",
    "System Under Test": "recombinant human beta tryptase (Homo sapiens)",
    "Result Unit": "nM",
    "Ki": 291
  },
  {
    "Compound": "COCCn1cc(C(=O)N2CCC(c3cc(CN)ccc3F)CC2)c2c(NC(=O)c3ccno3)cccc21 [Example 103, hydrochloride]",
    "System Under Test": "recombinant human beta tryptase (Homo sapiens)",
    "Result Unit": "nM",
    "Ki": 41
  },
  {
    "Compound": "Cc1cccc2c(C(=O)N3CCC(c4cc(CN)ccc4F)CC3)cn(CCOCCO)c12 [Example 21, hydrochloride]",
    "System Under Test": "recombinant human beta tryptase (Homo sapiens)",
    "Result Unit": "nM",
    "Ki": 28
  },
  {
    "Compound": "NCc1ccc(F)c(C2CCN(C(=O)c3cn(CCOC(F)(F)F)c4cccc(-c5cncnc5)c34)CC2)c1 [Example 92, dihydrochloride]",
    "System Under Test": "recombinant human beta tryptase (Homo sapiens)",
    "Result Unit": "nM",
    "Ki": 90
  }
]

// next entry
Given CCCCS(=O)(=O)Nc1cccc2c1c(C(=O)N1CCC(c3cc(CN)ccc3F)CC1)cn2CCOC [Example 107, hydrochloride] , state its recorded Ki.
315

----------
Record form. Attribute: Ki. Fill in for each entry.
target: recombinant human beta tryptase (Homo sapiens, UniProt P20231); construct: made in house; host or cells: yeast cells; experiment: beta-Tryptase inhibition, chromogenic enzyme assay (substrate S2366, read at 405 nm); assay type: biochemical; conditions: Tryptase Ki (nM), Ki calculated from IC50: Ki=IC50/(1+[Substrate]/Km); 0.5 mM substrate, room temperature
Sequence (P20231 31-275): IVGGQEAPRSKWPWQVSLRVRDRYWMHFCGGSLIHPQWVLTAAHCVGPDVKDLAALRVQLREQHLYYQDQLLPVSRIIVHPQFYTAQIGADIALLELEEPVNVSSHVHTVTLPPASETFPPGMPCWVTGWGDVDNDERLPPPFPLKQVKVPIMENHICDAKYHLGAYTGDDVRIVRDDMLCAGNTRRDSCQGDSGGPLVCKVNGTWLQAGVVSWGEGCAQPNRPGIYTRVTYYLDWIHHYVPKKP
Counter-ions that a name gives are not always drawn.
Answers are plain numbers, in nM.

Sample answers from the record:
[
  {
    "Molecule": "COCCn1cc(C(=O)N2CCC(c3cc(CN)ccc3F)CC2)c2c(C(=O)N3CCCCC3)cccc21 [Example 94, hydrochloride]",
    "Result Unit": "nM",
    "Ki": 21
  },
  {
    "Molecule": "COCCn1cc(C(=O)N2CCC(c3cc(CN)ccc3F)CC2)c2c(NC(=O)C3CC4CCC3C4)cccc21 (stereo not shown) [Example 98, hydrochloride]",
    "Result Unit": "nM",
    "Ki": 147
  },
  {
    "Molecule": "COCCn1cc(C(=O)N2CCC(c3cc(F)cc(CN)c3)CC2)c2cccc(C)c21 [Example 116, hydrochloride]",
    "Result Unit": "nM",
    "Ki": 746
  },
  {
    "Molecule": "COCCn1cc(C(=O)N2CCC(c3cc(CN)ccc3F)CC2)c2c(NC(C)=O)cccc21 [Example 96, hydrochloride]",
    "Result Unit": "nM",
    "Ki": 18
  }
]

Parameters: items (list). Returns: Ki for each item.
1. COCCn1cc(C(=O)N2CCC(c3cc(CN)ccc3F)CC2)c2cccc(C3CCC3)c21 [Example 19, hydrochloride]
2. COCCn1cc(C(=O)N2CCC(c3cc(CN)ccc3F)CC2)c2c(NC(=O)c3cc4cccc(C)c4[nH]3)cccc21 [Example 121, dihydrochloride]
3. COCCn1cc(C(=O)N2CCC(c3cc(CN)ccc3F)CC2)c2cccc(C#N)c21

1. 94
2. 99
3. 40

----------
Target: recombinant human beta tryptase (Homo sapiens, UniProt P20231)
Construct: made in house; host or cells: yeast cells
Test: beta-Tryptase inhibition, chromogenic enzyme assay (substrate S2366, read at 405 nm)
Format: biochemical
Conditions: Tryptase Ki (nM), additional value in parentheses tagged "719D" (code not explained)
Description: Inhibition of this catalytic activity may be measured by the in vitro enzyme assay and the cellular assay. Tryptase inhibition activity is confirmed using either isolated human lung tryptase or recombinant human beta tryptase expressed in yeast cells. Essentially equivalent results are obtained using isolated native enzyme or the expressed enzyme. […]
Counter-ions that a name gives are not always drawn.
Property Measured: Ki (nM)
Answers are plain numbers, in nM.

Given COCCn1cc(C(=O)N2CCC(c3cc(CN)ccc3F)CC2)c2c(NC(=O)C3CCOCC3)cccc21 [Example 95, hydrochloride] , state its recorded Ki.
47

----------
molecular target: recombinant human beta tryptase (Homo sapiens, UniProt P20231); construct: made in house; host or cells: yeast cells; test: beta-Tryptase inhibition, chromogenic enzyme assay (substrate S2366, read at 405 nm); assay type: biochemical; conditions: Tryptase Ki (nM), Ki calculated from IC50: Ki=IC50/(1+[Substrate]/Km); 0.5 mM substrate, room temperature
Structures can show the parent of a compound that is named as a salt.
Property Measured: Ki (nM)
One number for each entry, in nM.

Sample answers from the record:
[
  {
    "Compound": "COCCn1cc(C(=O)N2CCC(c3cc(CN)ccc3OCC(=O)N(C)C)CC2)c2cccc(C)c21 [Example 25, hydrochloride]",
    "System Under Test": "recombinant human beta tryptase (Homo sapiens, UniProt P20231)",
    "Ki / nM": 672
  },
  {
    "Compound": "Cc1cccc2c(C(=O)N3CCC(c4cc(CN)ccc4F)CC3)cn(CCCN3CCOCC3)c12 [Example 7, hydrochloride]",
    "System Under Test": "recombinant human beta tryptase (Homo sapiens, UniProt P20231)",
    "Ki / nM": 139
  }
]

Parameters: items (list). Returns: Ki for each item.
1. NCc1ccc(F)c(C2CCN(C(=O)c3cn(CC(F)(F)c4ccccc4)c4ccccc34)CC2)c1 [Example 45, hydrochloride]
2. COCCn1cc(C(=O)N2CCC(c3cc(CN)ccc3C(F)F)CC2)c2cccc(C)c21 [Example 9, hydrochloride]
3. Cc1cccc2c(C(=O)N3CCC(c4cc(CN)ccc4F)CC3)cn(CCOC(F)(F)F)c12 [Example 88, hydrochloride]
4. COCCn1cc(C(=O)N2CCC(c3cc(CN)ccc3F)CC2)c2cccc(F)c21 [Example 39, hydrochloride]
5. COCCn1cc(C(=O)N2CCC(c3cc(CN)ccc3OCC(=O)OC)CC2)c2cccc(OC(F)(F)F)c21 [Example 24, hydrochloride]

1: 753; 2: 203; 3: 239; 4: 10; 5: 98

----------
molecular target: recombinant human beta tryptase (Homo sapiens, UniProt P20231); construct: made in house; host or cells: yeast cells; experiment: beta-Tryptase inhibition, chromogenic enzyme assay (substrate S2366, read at 405 nm); format: biochemical; conditions: Tryptase Ki (nM), Ki calculated from IC50: Ki=IC50/(1+[Substrate]/Km); 0.5 mM substrate, room temperature
Structures can show the parent of a compound that is named as a salt.
Ki strictly less than 90 nM = 1.0. Otherwise 0.0.

A selection of reference data follows.
[
  {
    "Molecule": "COCCn1cc(C(=O)N2CCC(c3cc(CN)ccc3F)CC2)c2c(NC(=O)c3cncnc3)cccc21 [Example 102, hydrochloride]",
    "Group": 1.0
  },
  {
    "Molecule": "COCCn1cc(C(=O)N2CCC(c3cc(CN)ccc3F)CC2)c2c(NC(=O)c3ccncc3)cccc21 [Example 101, hydrochloride]",
    "Group": 1.0
  },
  {
    "Molecule": "CCCCn1cc(C(=O)N2CCC(c3cc(CN)ccc3F)CC2)c2c(OC)cccc21 [Example 46, hydrochloride]",
    "Group": 0.0
  }
]

# input for lookup
Field: below-cutoff. Rule: recorded Ki strictly less than 90 nM. Subject: Cc1cccc2c(C(=O)N3CCC(c4cc(CN)ccc4F)CC3)cn(CCCc3ccccc3)c12 [Example 4, hydrochloride]
0.0

----------
Molecular target: recombinant human beta tryptase (Homo sapiens)
Construct: made in house; host or cells: yeast cells
Experiment: beta-Tryptase inhibition, chromogenic enzyme assay (substrate S2366, read at 405 nm)
Assay type: biochemical
Conditions: Tryptase Ki (nM), Ki calculated from IC50: Ki=IC50/(1+[Substrate]/Km); 0.5 mM substrate, room temperature
From the text: Inhibition of this catalytic activity may be measured by the in vitro enzyme assay and the cellular assay. Tryptase inhibition activity is confirmed using either isolated human lung tryptase or recombinant human beta tryptase expressed in yeast cells. Essentially equivalent results are obtained using isolated native enzyme or the expressed enzyme. […]
Structures can show the parent of a compound that is named as a salt.
Property Measured: Ki (nM)
Give bare numbers, in nM.

[
  {
    "Compound": "Cc1cccc2c(C(=O)N3CCC(c4cc(CN)ccc4F)CC3)cn(CCN3CCOCC3)c12 [Example 3, hydrochloride]",
    "Ki, nM": 109
  },
  {
    "Compound": "COCCn1cc(C(=O)N2CCC(c3cc(CN)ccc3F)CC2)c2c(CCC(C)(C)O)cccc21 [Example 55, hydrochloride]",
    "Ki, nM": 72
  }
]

Parameters: items (list). Returns: Ki for each item.
1. COCCn1cc(C(=O)N2CCC(c3cc(CN)ccc3F)CC2)c2c(NC(=O)C3CCN(C)CC3)cccc21 [Example 97, hydrochloride]
2. NCc1ccc(F)c(C2CCN(C(=O)c3cn(CCc4ccncc4)c4ccccc34)CC2)c1 [Example 35, dihydrochloride]

1. 28
2. 8.6

Parameters: items (list). Returns: Ki for each item.
1. COCCn1cc(C(=O)N2CCC(c3cc(CN)ccc3OCC(N)=O)CC2)c2cccc(OC(F)(F)F)c21 [Example 32, hydrochloride]
2. Cc1cccc2c(C(=O)N3CCC(c4cc(CN)ccc4F)CC3)cn(CCO)c12 [Example 20, hydrochloride]
3. COCCn1cc(C(=O)N2CCC(c3cc(CN)ccc3F)CC2)c2c(-c3ccccc3)cccc21 [Example 60, hydrochloride]

1280
19
22
